FYI, the data here is from paper PMC12166061.

biological target: human TRIM21 PRY-SPRY domain (Homo sapiens); construct: Human TRIM21 PRY-SPRY domain (residues V287-I465, UniProt-ID: P19474); His6 (N, cleaved yes); SUMO (N, cleaved yes); made in house; host or cells: E. coli BL21(DE3); test: Differential scanning fluorimetry (DSF, ΔTm), human TRIM21 PRY-SPRY domain; format: binding; conditions: 2 mM compound, 8 μM protein
measured quantity: Tm-Shift hTRIM21 (°C)
Entry rule: numbers only, all in °C.

Data request, read-out Tm-Shift hTRIM21, for Cc1cccc(C(=O)N2CCC(C(N)=O)CC2)c1
-0.1

Data request, read-out Tm-Shift hTRIM21, for CCC(NC)c1ccncc1 (centres unmarked)
-0.1

###

Target: His-mTRIM21 PRYSPRY (Mus musculus, UniProt Q62191)
Construct: mouse TRIM21 PRY-SPRY domain (residues V291-M470, UniProt-ID: Q62191); made in house; host or cells: E. coli BL21(DE3)
Sequence (Q62191 291-470): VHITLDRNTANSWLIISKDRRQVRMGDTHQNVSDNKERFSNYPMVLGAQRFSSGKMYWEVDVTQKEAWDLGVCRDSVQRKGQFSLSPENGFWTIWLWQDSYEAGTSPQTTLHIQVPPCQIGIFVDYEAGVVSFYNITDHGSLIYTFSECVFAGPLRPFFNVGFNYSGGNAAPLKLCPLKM
Test: SPR fragment screening and dose response, mouse TRIM21 PRY-SPRY
Format: binding
Settings: single dose 500 µM fragment; relative response, suramin reference threshold 100 relative RU
measured quantity: SPR mTRIM21 (Response)
Reply with just the number.

O=S1(=O)CCN(Cc2ccco2)CC1 [Fragment Z1568344634]    60.76
O=C(O)C1CCCN(C(=O)Cc2ccc(F)cc2)C1 (stereo not drawn) [Fragment Z85893853]    60.46

Recall the recorded SPR mTRIM21 (Response) for CC(NS(C)(=O)=O)c1ccccc1Cl (stereo not drawn) [Fragment Z133729708] with His-mTRIM21 PRYSPRY (Mus musculus, UniProt Q62191) and state it.
60.52

###

molecular target: human TRIM21 PRY-SPRY domain (Homo sapiens); construct: Human TRIM21 PRY-SPRY domain (residues V287-I465, UniProt-ID: P19474); His6 (N, cleaved yes); SUMO (N, cleaved yes); made in house; host or cells: E. coli BL21(DE3); assay: Differential scanning fluorimetry (DSF, ΔTm), human TRIM21 PRY-SPRY domain; format: binding; conditions: 2 mM compound, 8 μM protein
Response field class: string, computed from recorded Tm-Shift hTRIM21 by ranges band A: < -0.2 °C; band B: ≥ -0.2 °C and < 0.1 °C; band C: ≥ 0.1 °C

COC1CN(Cc2cncs2)CCC1C (stereo not drawn)    band A

For the record O=C(O)C1CCCN(C(=O)Cc2ccc(F)cc2)C1 (stereo not drawn) , report the class its Tm-Shift hTRIM21 corresponds to.
band B

For the record c1cnc(N2CCC3(CCOC3)C2)cn1 (stereo not drawn) , report the class its Tm-Shift hTRIM21 corresponds to.
band C

For the record O=C(c1csnn1)N1CCOCC1 , report the class its Tm-Shift hTRIM21 corresponds to.
band B

###

molecular target: human TRIM21 PRY-SPRY domain (Homo sapiens, UniProt P19474); construct: Human TRIM21 PRY-SPRY domain (residues V287-I465, UniProt-ID: P19474); His6 (N, cleaved yes); SUMO (N, cleaved yes); made in house; host or cells: E. coli BL21(DE3); assay: Differential scanning fluorimetry (DSF, ΔTm), human TRIM21 PRY-SPRY domain; type: binding; conditions: 2 mM compound, 8 μM protein
Sequence (P19474 287-465): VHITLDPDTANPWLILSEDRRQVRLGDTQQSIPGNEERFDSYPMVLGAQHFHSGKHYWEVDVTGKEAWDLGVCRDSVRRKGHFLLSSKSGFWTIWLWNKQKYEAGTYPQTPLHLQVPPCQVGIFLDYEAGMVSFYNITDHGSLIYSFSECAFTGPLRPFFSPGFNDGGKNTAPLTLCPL
Quick reference: Tm-Shift hTRIM21 of the listed items.
Entry rule: numbers only, all in °C.

Some entries whose results are on file:
CC(=O)NCCc1ccccc1C    -0.4
CCC(=O)N1CCCC(NS(C)(=O)=O)C1 (centres unmarked)    0
CN(C)c1ccncc1    0
CC(=O)Nc1ccc(CN2CCOCC2)cc1    0.4
CC(=O)Nc1cc2c(cc1C)OCO2    0.1

Data request, read-out Tm-Shift hTRIM21, for Cc1nsc(N2CCCNCC2)n1
0.1

Data request, read-out Tm-Shift hTRIM21, for CC(=O)N1CCCC(CNS(C)(=O)=O)C1 (centres unmarked)
-0.2

Data request, read-out Tm-Shift hTRIM21, for CCc1nnc(NC(=O)C2CCCO2)s1 (centres unmarked)
-0.4

###

Molecular target: human TRIM21 PRY-SPRY domain (Homo sapiens, UniProt P19474)
Construct: Human TRIM21 PRY-SPRY domain (residues V287-I465, UniProt-ID: P19474); His6 (N, cleaved yes); SUMO (N, cleaved yes); made in house; host or cells: E. coli BL21(DE3)
Assay: Differential scanning fluorimetry (DSF, ΔTm), human TRIM21 PRY-SPRY domain
Assay type: binding
Details: 2 mM compound, 8 μM protein
Procedure: Briefly, recombinant murine and human TRIM21 PRY-SPRY domain at a concentration of 8 μM were mixed with 2 mM compound in their respective SEC buffer. SYPRO Orange (5000×, Invitrogen) was added as a fluorescence probe (1 µl per mL). Subsequently, temperature-dependent protein unfolding profiles were measured using the QuantStudio™ 5 realtime PCR machine (Thermo Fisher). Excitation and emission filters were set to 465 nm and 590 nm, respectively. […]
measured quantity: Tm-Shift hTRIM21 (°C)
Entry rule: numbers only, all in °C.

Nc1ccc(S(=O)(=O)Nc2ccccn2)cc1    -0.1
CCc1csc(-c2c[nH]cn2)n1    0.1

Now for another entry.
Data request, read-out Tm-Shift hTRIM21, for CCCn1c(NC(=O)CC)nc2ccccc21
-0.7
